Exercise: for every item that follows, state its recorded growth.
Test system: SF-539 CNS
Assay: NCI-60 one-dose screen, 48 h (100 = growth as untreated, 0 = no growth, -100 = all killed)
Conditions: 10 µM unless noted
The panel holds about 83,000 compounds, 20% with a hit somewhere; the sample as a whole holds those more often.
Give just the numeric value; % need not be written.

Summary: CCC(C)CC(C)C(=O)c1c(O)ccn(O)c1=O (stereo unspecified) , SF-539 CNS, growth = 5.81

Record `Cc1cc([N+](=O)[O-])c(C)cc1C(=O)O` has SF-539 CNS growth equal to 98.5

Kindly note: SF-539 CNS, `O=C(Cc1ccccn1)C(F)(F)C(F)(F)C(F)(F)F` , growth value reported: 104

growth value, target or system SF-539 CNS, for `Cc1c(C(N)=O)sc2nc(SCC(=O)Nc3ccc(Cl)cc3)n(-c3ccccc3)c(=O)c12` : 110

Noted growth for `N#Cc1c(N)[nH]c(S)c1C#N` , tested on SF-539 CNS: 97.9

Reported SF-539 CNS growth for item `COc1ccc2c(c1)nc(N)c1c3ccccc3cn21` was 94.3

// assay SF-539 CNS, entry `NC(=O)c1ncn([C@@H]2O[C@H](CO)[C@@H](O)[C@H]2O)n1` , growth value = 108

Form field growth for item `O=C(Nc1ccc(Nc2ccncc2)cc1)c1ccc(Nc2ccnc3ccc([N+](=O)[O-])cc23)cc1[N+](=O)[O-]` on SF-539 CNS: 53.3

// growth (SF-539 CNS) for `O=C(CCc1nnc(SCc2ccccc2)s1)c1nc2ccccc2[nH]1` = 109

// assay SF-539 CNS, entry `COc1c(C)c2c(c(O)c1C/C=C(\C)CCC(=O)OCCN1CCOCC1)C(=O)OC2` , growth value = 34.7

Note to self: growth of `Fc1ccc(-c2nnc(-c3c(-c4ccc(F)cc4)nc4ncccn34)o2)cc1` with SF-539 CNS was 94.4

----------
System: SNB-75 CNS
Test: NCI-60 one-dose screen, 48 h
Settings: 10 µM unless noted
Compounds without any hit were thinned out: in the full panel of roughly 83,000, 20% have a hit. Calls of active or inactive are those of the source. How the source made its calls: active means growth percent below 10; inactive means the rest.
Write down one outcome, taken from active, inactive

Input: Short answer needed: outcome of this test for `C[C@]12CC[C@@H]3c4ccc(O)c([N+](=O)[O-])c4CC[C@H]3[C@@H]1CC[C@@H]2NS(=O)(=O)c1ccc(C(F)(F)F)cc1` ?
Output: inactive

Input: // outcome(item) with item = COc1ccc(-c2nn(-c3cccc(Cl)c3)cc2C2CC(c3ccccc3)=NN2C(C)=O)cc1 (stereo unspecified)
Output: active

Input: How did this test come out for `CN1COc2ccc3ccccc3c2C1` ?
Output: inactive

Input: Hey, what did the test say about CC(CCC(=O)O)(NC(=O)c1ccc([N+](=O)[O-])cc1)C(=O)O (stereo unspecified) ?
Output: inactive

Input: Short answer needed: outcome of this test for `COc1ccc2[nH]cc(/C=C3/C(=O)Nc4ccc(Cl)cc43)c2c1` ?
Output: active

Input: Test call for this compound, please: `Cc1cc(N2CCOCC2)nc(N2CCOCC2)n1`
Output: inactive

Input: Recorded test call requested for `COC(=O)c1ccc2c(c1)nc(-c1ccc(O)c(OC)c1)n2-c1cc(C(C)(C)C)[nH]n1`
Output: inactive

Input: Short answer needed: outcome of this test for `Oc1[nH]c2ccccc2c1/C=c1/ccc2c(c1)N=C(c1cc(F)cc(F)c1)N=2` ?
Output: inactive

Input: Dear colleague, could you share the recorded outcome for `COc1ccc2c(c1)[nH]c(=O)c1c3cc(OC)c(OC)cc3cn21` when you have a moment?
Output: inactive

Input: Please indicate how the test categorized `O=C1Cc2cc(CCN3CCN(CCOCCO)CC3)c(Cl)cc2N1Cc1ccc(-c2ccccc2-c2nn[nH]n2)cc1` .
Output: inactive

Input: Hi, sorry to bother you, what did the test record for `COc1cccc(CCC2C(=O)CCCC2=O)c1` ?
Output: inactive

Input: Dear all, I need the recorded test outcome for `NS(=O)(=O)c1ccc(NC2=C(Cl)C(=O)c3ccccc3C2=O)cc1` , thank you.
Output: inactive

Input: Field: outcome | Entry: CC12CCC3C(CCC4CC(=O)/C(=C\O)CC43C)C1CCC(=O)O2 (stereo unspecified)
Output: inactive

Input: Entry `CN(C)c1ccc(/C=C\c2ccnc3ccccc23)cc1` : call = ?
Output: inactive

Input: Hi, sorry to bother you, what did the test record for `Cn1cc(-c2nc(-c3c[nH]c4ncc(F)cc34)cs2)c2cccnc21` ?
Output: inactive

Input: Call for entry `O=C(Nc1ncc([N+](=O)[O-])s1)c1cccc([N+](=O)[O-])c1` :
Output: inactive

Input: What did this assay record as the result for `COc1ccc2c(c1)C(=O)c1c-2c(OCCN(C)C)nc2cc(OC)ccc12` ?
Output: inactive

Input: How did this test come out for CC[C@]1(O)CC2CN(CCc3c([nH]c4ccccc34)[C@@](C(=O)OC)(c3cc4c(cc3OC)N(C)[C@H]3[C@@](O)(C(=O)OC)[C@H](OC(C)=O)[C@]5(CC)C=CCN6CC[C@]43[C@@H]65)C2)C1 (stereo partly specified) ?
Output: active

Input: # outcome recorded in this test, key = `C[C@]12CC[C@@H]3c4ccc(O)cc4CC[C@H]3[C@@H]1CC[C@@H]2NS(=O)(=O)c1cccc(Br)c1`
Output: inactive

Input: Answer briefly: the call reported for `CN(CC(=O)N(Cc1ccc(C2CCCCC2)cc1)c1ccc(C(=O)O)cc1)S(=O)(=O)c1c(F)c(F)c(F)c(F)c1F` in this assay.
Output: inactive

Input: # outcome recorded in this test, key = Nc1nc2ncc(CCNc3ccc(C(=O)NC(CCC(=O)O)C(=O)O)cc3)nc2c(=O)[nH]1 (stereo unspecified)
Output: inactive

Input: Outcome? `O=C(Cc1ccccn1)C(F)(F)C(F)(F)C(F)(F)F`
Output: inactive

Input: Hello, I am checking results. What call was entered for `Cn1c(=O)c2c(nc(Br)n2CCC(=O)Nc2ccc(F)cc2)n(C)c1=O` ?
Output: inactive

Input: Given `CCOC(=O)c1cc(-c2cccnc2)nc2c(Cl)cc(Cl)cc12` , state the outcome it received in this test.
Output: inactive

Input: What classification did `C[n+]1c2ccccc2c(Nc2ccc(N3CCCCC3)cc2)c2[nH]c3ccccc3c21` end up with in this test?
Output: active

Input: Per the records of this test, what outcome belongs to `Nc1ncc(-c2cnn(C3CCNCC3)c2)cc1-c1nc2cc(Cl)ccc2o1` ?
Output: active

Input: Which outcome did this test record for the compound `Cn1c(N)c(N=O)c(=O)[nH]c1=O` ?
Output: inactive

Input: In this assay, the call recorded for COC1CC2CCC(C)C(O)(O2)C(=O)C(=O)N2CCCCC2C(=O)OC(C(C)CC2CCC(O)C(OC)C2)CC(=O)C(C)C=C(C)C(O)C(OC)C(=O)C(C)CC(C)/C=C/C=C/C=C1C (stereo unspecified) was what?
Output: inactive

Input: Field: outcome | Entry: `C[C@]12C[C@H](O)[C@H]3[C@@H](CCC4=CC(=O)CC[C@@]43C)[C@@H]1CC[C@@H]2C(=O)CO`
Output: inactive

Input: What was the test verdict on `CCC(=O)Nc1ccccc1C#C/C=C\C#Cc1ccccc1C(F)(F)F` ?
Output: inactive

Input: Outcome logged for `Cc1ccsc1/C=C/C1=NCCCN1C` in this assay:
Output: inactive

----------
Test system: CAKI-1 renal
Test: NCI-60 one-dose screen, 48 h (100 = growth as untreated, 0 = no growth, -100 = all killed)
Settings: 10 µM unless noted
Compounds without any hit were thinned out: in the full panel of roughly 83,000, 20% have a hit.
READOUT_NAME: growth (%)
Value expressed in %; do not type the unit.

The recorded growth for CCC1(c2ccccc2)Oc2ccccc2-n2c(C#N)c3ccccc3c2C1=O (stereo not given) is 100

GET /value?item= `CCCCCCCCSc1ncnc2c1ncn2CO` &field=growth returns 72.6

For reference, reported growth for `Cn1[nH]cc(/C=N/C(N)=O)c1=O` stands at 109

compound `CC[N+](CC)(CCOCCOCC[N+](CC)(CC)Cc1ccc([N+](=O)[O-])cc1)Cc1ccc([N+](=O)[O-])cc1` , growth observed: 93.7

Quick note, growth for `Cn1c(=O)c2nc(SCc3ccccc3)n(C)c2n(C)c1=O` landed at 119

Lab note: `CCOC(=O)c1c(C)nc(C)c(C(=O)OCC)c1-c1cccnc1` gave growth of 106

For record `Cc1ccc([N+](=O)[O-])cc1NC(=O)Nc1cccc(F)c1` the listed growth is 53.4

get_value(item= `COC(=O)[C@]12CC[C@@H](C)[C@H](C)[C@@H]1C1=CC[C@@H]3[C@@]4(C)C=C(O)C(=O)[C@@]5(C)COC(=C54)C[C@@]3(C)[C@]1(C)CC2` , readout=growth) returns -45.7

Kindly note the recorded growth for `c1ccc(-c2nn[nH]n2)c(-c2ccc(CN3CCN(c4nsc5ccccc45)CC3)cc2)c1` , which is 84

Summary for this compound, `COc1cc(/C=C/C(=O)c2c(-c3ccc(Cl)cc3)nc3sc(C)nn23)cc(OC)c1OC` : growth is 93.7
